Tested on: p38-beta;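 note: KINOMEscan kinase panel screen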
Construct: gene MAPK11
Conditions: concentration: 1 μM, replicates: in singlicate; n = 1
Checkbox rule: %Inh lower than 2% = rule met; %Inh not lower than 2% = rule not met.

Req: Just wondering, is %Inh of COc1cccc(C2=C(Nc3cc(Cl)c(O)c(Cl)c3)C(=O)NC2=O)c1 [SB-390767] below 2%?
Resp: rule met

Req: Just wondering, is %Inh of Cn1cnc2c(N)ncnc21 [SKF-97623] below 2%?
Resp: rule met

Req: Just wondering, is %Inh of Fc1ccc(-c2nc3n(c2-c2ccncc2)CCS3)cc1 [GI98581] below 2%?
Resp: rule not met

Req: Just wondering, is %Inh of CNc1nc(-c2ccc3c(N)n[nH]c3c2)cc(N2C[C@@H](C(=O)NC3CCCCC3)OC[C@H]2C)n1 [GSK2375584] below 2%?
Resp: rule met

Req: Just wondering, is %Inh of COC(=O)c1cccc(NC(=O)NC2CCN(c3ccnc(Nc4ccc(OC)cc4)n3)C2)c1 (stereo not shown) [GSK1379746] below 2%?
Resp: rule met

Req: Just wondering, is %Inh of Cn1cncc1-c1cc2c(Nc3ccc(OCc4ccccc4)cc3)ncnc2cn1 [GW281179] below 2%?
Resp: rule met

Req: Just wondering, is %Inh of Nc1ncnc2occ(-c3ccc4c(c3)CCN4C(=O)Cc3cc(F)ccc3F)c12 [GSK2645446] below 2%?
Resp: rule met

Req: Just wondering, is %Inh of Fc1ccc(-c2nc[nH]c2-c2ccncc2)cc1 [SB-217360] below 2%?
Resp: rule not met

Req: Just wondering, is %Inh of Cc1ccc(NC(=O)c2ccc(Cl)cc2)cc1-c1ccc(C(=O)Nc2ccncc2)cc1 [GSK1398467] below 2%?
Resp: rule not met

Req: Just wondering, is %Inh of CC(C)c1ccc(O)cc1Nc1ccnc2ccc(C(F)(F)F)cc12 [GW482059] below 2%?
Resp: rule met

Req: Just wondering, is %Inh of O=C(Nc1n[nH]c2nc(-c3ccco3)c(Br)cc12)C1CCN(Cc2ccccc2)C1.O=C(O)[C@H](O)[C@@H](O)C(=O)O (stereo not shown) [SB-742034] below 2%?
Resp: rule not met

Req: Just wondering, is %Inh of COc1ccc(Nc2nccc(NCCNC(=O)Nc3cc(C)ccc3C)n2)cc1 [GSK1379899] below 2%?
Resp: rule met

Req: Just wondering, is %Inh of CCn1c(-c2ccccc2)nc2cnccc21 [SB-733416] below 2%?
Resp: rule met

Req: Just wondering, is %Inh of COc1ccc(-c2coc3ccc(-c4nnc(C)o4)cc23)cc1 below 2%?
Resp: rule not met

Req: Just wondering, is %Inh of CC(=O)c1c(C)c2cnc(Nc3ccn(C)n3)nc2n(C2CCCC2)c1=O below 2%?
Resp: rule met

Req: Just wondering, is %Inh of Cc1c(Cn2c3ccccc3n3c(=O)cc(N4CCOCC4)nc23)cccc1C(F)(F)F [GSK2306394] below 2%?
Resp: rule met

Req: Just wondering, is %Inh of O=C1NC(=O)C(c2ccc(Cl)cc2)=C1Nc1cccc(Cl)c1 [SB-317651] below 2%?
Resp: rule met

Req: Just wondering, is %Inh of CS(=O)(=O)Cc1ccc(Nc2nccc(-c3c(-c4cccc(NC(=O)C5CCCCC5)c4)nn4ncccc34)n2)cc1 [GSK350559] below 2%?
Resp: rule not met
